metric: IC50

Query block: Form field - read-out: IC50; system: Protein cereblon/DNA damage-binding protein 1 (Homo sapiens, UniProt Q96SW2); submitted item: Nc1cccc2c1ncn2C1CCC(=O)NC1=O (stereo unspecified)
Result block: 0.81 µM

Query block: # returns recorded IC50 (system: Protein cereblon/DNA damage-binding protein 1 (Homo sapiens, UniProt Q96SW2)) for `Nc1cccc(N[C@@H]2CCC(=O)NC2=O)c1`
Result block: 2.9 µM

Query block: Provide value of IC50 for this record tested with Protein cereblon/DNA damage-binding protein 1 (Homo sapiens, UniProt Q96SW2): Cn1nc(C2CCC(=O)NC2=O)c2cccc(N)c21 (stereo unspecified)
Result block: 0.19 µM

Query block: Enter reported IC50 observed with Protein cereblon/DNA damage-binding protein 1 (Homo sapiens, UniProt Q96SW2) for O=C1CCC(NC(=O)c2ccccc2)C(=O)N1 (stereo unspecified)
Result block: 11.1 µM

Query block: Record `Nc1cccc(N2CCC(=O)NC2=O)c1` : what is its IC50 with Protein cereblon/DNA damage-binding protein 1 (Homo sapiens, UniProt Q96SW2)?
Result block: 11.7 µM

Query block: Hello, I am looking for reported IC50 with Protein cereblon/DNA damage-binding protein 1 (Homo sapiens, UniProt Q96SW2) for COc1ccc(C2CCC(=O)NC2=O)cc1 (stereo unspecified) . Could you help?
Result block: 2.2 µM

Query block: Reported IC50 for Protein cereblon/DNA damage-binding protein 1 (Homo sapiens, UniProt Q96SW2), given O=C1CCC(Nc2ccccc2)C(=O)N1 (stereo unspecified) ?
Result block: 5.6 µM

Query block: Query for Protein cereblon/DNA damage-binding protein 1 (Homo sapiens, UniProt Q96SW2): what IC50 does the record show for Nc1ccc(NC2CCC(=O)NC2=O)cc1 (stereo unspecified) ?
Result block: 12.4 µM

Query block: # returns recorded IC50 (system: Protein cereblon/DNA damage-binding protein 1 (Homo sapiens, UniProt Q96SW2)) for O=C1CCC(Oc2ccccc2)C(=O)N1 (stereo unspecified)
Result block: 7 µM

Query block: Find IC50 (Protein cereblon/DNA damage-binding protein 1 (Homo sapiens, UniProt Q96SW2)) for the entry `Cc1ccc(NC(=O)NCc2ccc(N3CCC(=O)NC3=O)cc2)cc1Cl`
Result block: 4.7 µM

Query block: Give IC50 (Protein cereblon/DNA damage-binding protein 1 (Homo sapiens, UniProt Q96SW2)) of the following compound: Nc1cccc(C2CCC(=O)NC2=O)c1 (stereo unspecified)
Result block: 2.3 µM

Query block: Hello, I am looking for reported IC50 with Protein cereblon/DNA damage-binding protein 1 (Homo sapiens, UniProt Q96SW2) for O=C1CCC(c2cccc(OCc3ccc(CN4CCOCC4)cc3)c2)C(=O)N1 (stereo unspecified) . Could you help?
Result block: 0.58 µM

Query block: Give recorded IC50 with Protein cereblon/DNA damage-binding protein 1 (Homo sapiens, UniProt Q96SW2) for the following compound: `Nc1ccc(N2CCC(=O)NC2=O)cc1`
Result block: 23.6 µM

Query block: I'm curious: which IC50 was measured for Cn1nc(C2CCC(=O)NC2=O)c2ccc(N)cc21 (stereo unspecified) tested on Protein cereblon/DNA damage-binding protein 1 (Homo sapiens, UniProt Q96SW2)?
Result block: 0.1 µM

Query block: API: value(readout= IC50, system= Protein cereblon/DNA damage-binding protein 1 (Homo sapiens, UniProt Q96SW2), query= `O=c1ccn(-c2ccccc2)c(=O)[nH]1` )
Result block: > 100 µM

Query block: What value of IC50 on Protein cereblon/DNA damage-binding protein 1 (Homo sapiens, UniProt Q96SW2) does `Nc1cccc(N[C@H]2CCC(=O)NC2=O)c1` have?
Result block: 1.4 µM

Query block: GET /values?readout=IC50&system=Protein cereblon/DNA damage-binding protein 1 (Homo sapiens, UniProt Q96SW2)&item= Cc1ccc(NC(=O)NCc2ccc3c(c2)CN(C2CCC(=O)NC2=O)C3=O)cc1Cl (stereo unspecified)
Result block: 0.03 µM

Query block: API: value(readout=IC50, system=Protein cereblon/DNA damage-binding protein 1 (Homo sapiens, UniProt Q96SW2)) for record `Cn1nc(N2CCC(=O)NC2=O)c2cccc(N)c21`
Result block: 12.2 µM

Query block: Lab note: need IC50 with Protein cereblon/DNA damage-binding protein 1 (Homo sapiens, UniProt Q96SW2) for entry `O=C1CCN(c2ccc(OCc3ccc(CN4CCOCC4)cc3)cc2)C(=O)N1` , please look it up.
Result block: 8 µM

Query block: Find IC50 (Protein cereblon/DNA damage-binding protein 1 (Homo sapiens, UniProt Q96SW2)) for the entry COc1cccc(C2CCC(=O)NC2=O)c1 (stereo unspecified)
Result block: 1.7 µM

Query block: Identify the measured IC50 of Cc1ccc(NC(=O)NCc2ccccc2C(=O)NC2CCC(=O)NC2=O)cc1Cl (stereo unspecified) for Protein cereblon/DNA damage-binding protein 1 (Homo sapiens, UniProt Q96SW2).
Result block: 10.3 µM

---

# systemTested: Protein cereblon/DNA damage-binding protein 1 (Homo sapiens, UniProt Q96SW2)
pIC50: −log10 of the molar value.
# if value of pIC50 reaches 6, tag Yes; if it stays below, tag No

Query block: Is it the case that Nc1cccc(C(=O)NC2CCC(=O)NC2=O)c1 (configuration not stated) has pIC50 reaching or exceeding 6?
Result block: No

Query block: Decide: is the reported value of pIC50 for Nc1ccc(C(=O)NC2CCC(=O)NC2=O)cc1 (configuration not stated) equal to or greater than 6?
Result block: No

Query block: # bool: pIC50 of `Cn1nc(N2CCC(=O)NC2=O)c2ccc(N)cc21` >= 6
Result block: No

Query block: Quick check: does Cn1nc(C2CCC(=O)NC2=O)c2ccccc21 (configuration not stated) have pIC50 greater than or equal to 6?
Result block: Yes

Query block: Could you tell me if the measured pIC50 of Nc1cccc2c1cnn2C1CCC(=O)NC1=O (configuration not stated) reaches 6 or more?
Result block: Yes
